Attribution: PubChem BioAssay (Tox21)

assay: qHTS assay for small molecule agonists of the p53 signaling pathway - cell viability (AID 651633); details: p53RE-bla HCT-116 viability, ATP luminescence, 16 h; series mostly up to 83.3 µM;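 note: p53RE-bla HCT reporter cells with a stable beta-lactamase p53 reporter; nearly all actives have a fitted effect of over 30% in size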
Inconclusive results are not listed. The source made the active and inactive calls. Calls come from the whole dose curve.
readout label: outcome

Previously resolved entries follow.
[[record]]
molecule = "CCCC(=O)c1cc(O)c(O)cc1O"
assay_value = "inactive"

[[record]]
molecule = "C[C@H](NCCc1ccc(O)cc1)[C@H](O)c1ccc(O)cc1"
assay_value = "inactive"

[[record]]
molecule = "CC(=O)NC[C@H]1CN(c2ccc(N3CCOCC3)c(F)c2)C(=O)O1"
assay_value = "inactive"

[[record]]
molecule = "NCCCC[C@H](NC(=O)[C@@H]1CCCN1C(=O)[C@@H]1CSSC[C@H](N)C(=O)N[C@@H](Cc2ccc(O)cc2)C(=O)N[C@@H](Cc2ccccc2)C(=O)N[C@@H](CCC(N)=O)C(=O)N[C@@H](CC(N)=O)C(=O)N1)C(=O)NCC(N)=O"
assay_value = "inactive"

[[record]]
molecule = "NC[C@@H]1CC[C@@H](N)[C@@H](O[C@H]2[C@H](O)[C@@H](O[C@H]3O[C@H](CO)[C@@H](O)[C@H](N)[C@H]3O)[C@H](N)C[C@@H]2N)O1"
assay_value = "inactive"


Recorded outcome of COC1[C@@H](O[C@@H]2O[C@H](C)[C@@H](O[C@H]3C[C@@](C)(O)[C@H](OC(=O)CC(C)C)[C@H](C)O3)[C@H](N(C)C)[C@H]2O)[C@@H](CC=O)C[C@@H](C)[C@@H](O)/C=C/C=C/C[C@@H](C)OC(=O)C[C@H]1OC(C)=O (some centres not stated) , please.
inactive

Recorded outcome of `C/C(=C\C(=O)OCCCCCCCCC(=O)O)C[C@@H]1OC[C@H](C[C@@H]2O[C@H]2[C@@H](C)[C@H](C)O)[C@@H](O)[C@H]1O` , please.
inactive

---

experiment: qHTS assay to test for compound auto fluorescence at 535 nm (green) in HepG2 cells (AID 720675); settings: green autofluorescence 485/535 nm, 1 h; series mostly up to 46 µM
Active and inactive are the calls of the source. The call rests on the fitted dose curve; in most records, active means well fitted curve in the direction sought with a large enough effect in the repeat runs; inconclusive means weak or mixed curves; inactive means flat fitted curve, though single readings scatter.
readout label: outcome

[[record]]
molecule = "CC(C)=CCC/C(C)=C/CC/C(C)=C/CC/C=C(\\C)CC/C=C(\\C)CCC=C(C)C"
readout_label = "outcome"
assay_value = "inactive"

[[record]]
molecule = "C=CC[N@@+]12CC[C@@]34c5ccccc5N5/C=C6/[C@H]7C[C@H]8[C@@]9(CC[N@@+]8(CC=C)C/C7=C/CO)c7ccccc7N(/C=C(/[C@@H](C[C@@H]31)/C(=C\\CO)C2)[C@H]54)[C@@H]69"
readout_label = "outcome"
assay_value = "inactive"

[[record]]
molecule = "Nc1cc(Cl)c(NC2=NCCN2)c(Cl)c1"
readout_label = "outcome"
assay_value = "inactive"

[[record]]
molecule = "CC(=O)OCC(=O)[C@@]1(O)CC[C@H]2[C@@H]3CCC4=CC(=O)CC[C@]4(C)C3=CC[C@@]21C"
readout_label = "outcome"
assay_value = "inactive"

[[record]]
molecule = "CN(C[C@@H](CC[N+]12CCC(C3CCCCC3)(CC1)CC2)c1ccc(Cl)c(Cl)c1)C(=O)c1cc(C(F)(F)F)cc(C(F)(F)F)c1"
readout_label = "outcome"
assay_value = "inactive"


Recorded outcome of CC1(C)S[C@@H]2[C@H](N3C(=O)C(c4ccccc4)NC3(C)C)C(=O)N2[C@H]1C(=O)O (stereo partly drawn) , please.
inactive
